Biological target: full-length beta-Catenin (Uniprot ID P35222) (Homo sapiens (Human)) (UniProt P35222)
Sequence (P35222 whole entry): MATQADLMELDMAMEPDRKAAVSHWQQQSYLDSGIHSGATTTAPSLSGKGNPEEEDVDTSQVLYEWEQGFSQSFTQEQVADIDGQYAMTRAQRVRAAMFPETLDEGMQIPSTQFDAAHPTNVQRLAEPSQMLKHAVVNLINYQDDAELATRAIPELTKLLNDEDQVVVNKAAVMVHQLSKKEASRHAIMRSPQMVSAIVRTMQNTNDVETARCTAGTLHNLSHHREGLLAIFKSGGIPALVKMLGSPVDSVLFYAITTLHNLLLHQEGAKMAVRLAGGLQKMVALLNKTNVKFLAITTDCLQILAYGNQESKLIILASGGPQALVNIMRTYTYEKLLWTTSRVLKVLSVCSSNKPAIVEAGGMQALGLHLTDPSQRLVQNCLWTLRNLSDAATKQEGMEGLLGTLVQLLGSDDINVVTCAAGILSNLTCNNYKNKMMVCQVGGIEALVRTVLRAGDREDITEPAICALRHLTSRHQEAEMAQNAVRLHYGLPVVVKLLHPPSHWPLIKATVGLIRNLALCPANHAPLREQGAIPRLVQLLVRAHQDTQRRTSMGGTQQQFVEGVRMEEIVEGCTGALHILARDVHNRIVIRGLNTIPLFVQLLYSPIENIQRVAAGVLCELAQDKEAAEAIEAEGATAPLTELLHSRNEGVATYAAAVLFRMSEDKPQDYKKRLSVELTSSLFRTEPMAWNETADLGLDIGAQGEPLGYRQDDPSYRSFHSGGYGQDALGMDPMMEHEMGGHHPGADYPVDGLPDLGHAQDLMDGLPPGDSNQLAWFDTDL
Assay: fluorescence polarization competition; peptide titrated against 10 nM full-length beta-catenin + 10 nM 5FAM-TCF4(10-53)
Starred links: 1 amine or outer side, 2 acyl side, 3 side chain; linkers in the order of their positions; H or OH if unused. Positions of bridges follow the written chain, without caps; N, C: chain ends. Non-standard residues stand in square brackets, D forms with d. Primed or numbered codes have the meaning given here. *: point of attachment. PyrS2″ = (S)-3-amino-1-((pent-4-en-1-yloxy)carbonyl)pyrrolidine-3-carboxylic acid (stapling residue), C=CCCCOC(=O)N1CC[C@@](N[*:1])(C(=O)[*:2])C1; B5(4) = 2,2-bis(4-pentenyl)glycine = 2-amino-2-(pent-4-en-1-yl)hept-6-enoic acid (stitching residue), C=CCCCC(CCCC=C)(N[*:1])C(=O)[*:2]; TfeGA = (S)-2-amino-3-((carboxymethyl)(2,2,2-trifluoroethyl)amino)propanoic acid, O=C([C@H](CN(CC(=O)[*:3])CC(F)(F)F)N[*:1])[*:2]; PyrS2 = (S)-3-amino-1-((pent-4-en-1-yloxy)carbonyl)pyrrolidine-3-carboxylic acid, C=CCCCOC(=O)N1CC[C@@](N[*:1])(C(=O)[*:2])C1; MorphAsn = (S)-2-amino-4-morpholino-4-oxobutanoic acid, O=C(C[C@H](N[*:1])C(=O)[*:2])N1CCOCC1; B5(3) = 2,2-bis(4-pentenyl)glycine (stitching residue), C=CCCCC(CCCC=C)(N[*:1])C(=O)[*:2]; Bta = N[C@@H](Cc1csc2ccccc12)C(=O)O; αAllylPro = C=CC[C@@]1(C(=O)O)CCCN1; Morpholinoacetyl = O=C(CN1CCOCC1)*; tBuAla = CC(C)(C)C[C@H](N)C(=O)O; 3Thi = N[C@@H](Cc1ccsc1)C(=O)O; Cha = N[C@@H](CC1CCCCC1)C(=O)O
Give pIC50 for every item shown.
To interpret pIC50, take it as minus log10 of a concentration measured in moles per litre.

Recorded pIC50 of Ac-[αAllylPro]D[tBuAla][B5(4)]D[TfeGA]AAFL[PyrS2″][3Thi][Bta]N-NH2 (staple 1-4, 4-11; also: -CH=CH- in each staple reduced to -CH2-CH2-) [I-1715] , please.
7.02

What measured pIC50 goes with Ac-[αAllylPro]N[Cha][B5(4)]DQKAFL[PyrS2]F[Bta][MorphAsn]-NH2 (staple 1-4, 4-11; not fully specified (residue 7); printed as Ac-PL3-Asn-Cha-B5-Asp-Gln-[Phc]Lys-Ala-Phe-Leu-PyrS2-Phe-BztA-MorphAsn-NH2) [I-2523] ?
5.76

Which measured pIC50 value corresponds to Ac-[αAllylPro]N[Cha][B5(4)]DQK(Morpholinoacetyl)AFL[PyrS2]F[Bta][MorphAsn]-NH2 (staple 1-4, 4-11) [I-2527] ?
6.58

Fill in the blank: the reported pIC50 of Ac-[αAllylPro]D[tBuAla][B5(3)]DDAAFQ[PyrS2″][3Thi][Bta]HK-NH2 (staple 1-4, 4-11; also: later eluting staple isomer) [I-2230] is ____.
8.10

Reference source: patent US20240116985A1
